Data provenance is the supplement of paper PMC13207355.

tested on: FT3469 (normal neural stem cell line); assay: surviving fraction (nuclei count normalised to DMSO); higher = more cells surviving (less toxic); conditions: 4.1 nM; exposure time: 72 h
Counter-ions that a name gives are not always drawn.
If the reported surviving fraction equals or exceeds 1, assign yes. If not, assign no.

Decide: is the reported value of surviving fraction for Clc1ccc(COC(Cn2ccnc2)c2ccc(Cl)cc2Cl)cc1 (centres undefined) [Econazole nitrate] equal to or greater than 1?
no

Is it the case that CCc1c2c(nc3ccc(OC(=O)N4CCC(N5CCCCC5)CC4)cc13)-c1cc3c(c(=O)n1C2)COC(=O)[C@]3(O)CC [Irinotecan] has surviving fraction reaching or exceeding 1?
yes

Check the entry Cc1c(-c2ccc(-c3ccccc3F)cc2)nc2ccc(F)cc2c1C(=O)O [Brequinar sodium salt hydrate] : does surviving fraction equal or exceed 1?
no

Is reported surviving fraction greater than or equal to 1 here: C#C[C@]1(O)CC[C@H]2[C@@H]3CCC4=CCCC[C@@H]4[C@H]3CC[C@@]21C [Lynestrenol]
yes

Please check the record Clc1ccc(COC(Cn2ccnc2)c2ccc(Cl)cc2Cl)c(Cl)c1 (centres undefined) [Miconazole] and state if its surviving fraction is at or above 1.
yes

I'd appreciate it if you could say whether CC(C)(Oc1ccc(C2CC2(Cl)Cl)cc1)C(=O)O (centres undefined) [Ciprofibrate] has surviving fraction at least equal to 1.
no

Dear colleague, could you confirm whether COc1cccc2c(NCc3ccccc3)nc(-n3c(N)nc4ccccc43)nc12 [ML240] has surviving fraction at or above 1?
no

Please tell me: is the compound NCCNc1ccc(NCCN)c2c1C(=O)c1ccncc1C2=O [Pixantrone dimaleate] at or over 1 in terms of surviving fraction?
no

Is it the case that S=c1[nH]cnc2nc[nH]c12 [Mercaptopurine] has surviving fraction reaching or exceeding 1?
yes

----------
tested on: E34 (patient-derived glioblastoma stem cells of proneural subtype); test: surviving fraction (nuclei count normalised to DMSO); higher = more cells surviving (less toxic); conditions: 1000 nM; exposure time: 72 h
Structures can show the parent of a compound that is named as a salt.
So I've got a bunch of compounds here, and I need their surviving fraction values.
Could you respond with only the numeric value?

Field: surviving fraction (E34). Entry: CO[C@H]1C(=O)[C@]2(C)[C@@H](OC)C[C@H]3OC[C@@]3(OC(C)=O)[C@H]2[C@H](OC(=O)c2ccccc2)[C@]2(O)C[C@H](OC(=O)[C@H](O)[C@@H](NC(=O)OC(C)(C)C)c3ccccc3)C(C)=C1C2(C)C [Cabazitaxel]
0.608

Value wanted: surviving fraction (E34) of entry CC(C)C[C@H](NC(=O)CNC(=O)c1cc(Cl)ccc1Cl)B(O)O [Ixazomib]
0.0659

Notebook entry, E34 assay: surviving fraction of CN[C@@H]1[C@@H](O)[C@@H](O[C@@H]2[C@@H](O)[C@H](O[C@H]3OC(CN)=CC[C@H]3N)[C@@H](N)C[C@H]2N)OC[C@]1(C)O [Sisomicin sulfate] = ?
0.88

Query the reported surviving fraction for E34; item: Cc1cc(/C=C/c2ccc3cc(N(C)C)ccc3[n+]2C)c(C)n1-c1ccccc1 [Pyrvinium pamoate]
0.443

----------
system: E21 (patient-derived glioblastoma stem cells of mesenchymal subtype); experiment: phenotypic distance (Euclidean, principal components) from DMSO controls (arbitrary units); higher = stronger morphological change; conditions: 37.037 nM; exposure time: 72 h
Where a name gives a salt, the structure may show the parent alone.
Measured parameter: phenotypic distance
API doc: respond with a numeric literal and nothing else, no unit.

Using the record for CC(C)(C)CC(C)(C)c1ccc(OCCOCC[N+](C)(C)Cc2ccccc2)cc1 [Benzethonium chloride] , report its phenotypic distance.
0.654

For the molecule C[C@@H](O)[C@H]1C(=O)N2C(C(=O)O)=C(S[C@@H]3CN[C@H](C(=O)N(C)C)C3)[C@H](C)[C@H]12 [Meropenem] , what phenotypic distance is on record?
0.846

Bench note: what phenotypic distance did O=c1c2ccccc2[se]n1-c1ccccc1 [Ebselen] show?
0.667

Which phenotypic distance value belongs to COc1cc2nc(N3CCN(C(=O)c4ccco4)CC3)nc(N)c2cc1OC [Prazosin hydrochloride] ?
0.834

----------
system: E13 (patient-derived glioblastoma stem cells of classical subtype); assay: phenotypic distance (Euclidean, principal components) from DMSO controls (arbitrary units); higher = stronger morphological change; conditions: 12.3 nM; exposure time: 72 h
So I've got a bunch of compounds here, and I need their phenotypic distance values.
Lab note: jot down the number only; don't add units.

Look up phenotypic distance with E13 for this compound: CCCSc1ccc2[nH]c(NC(=O)OC)nc2c1
0.56

Quick check: phenotypic distance on E13, item COc1cc2c(NC3CCN(C(C)C)CC3)nc(C3CCCCC3)nc2cc1OCCCN1CCCC1 ?
0.523

Kindly state the measured phenotypic distance obtained for OC[C@H]1NC[C@H](O)[C@@H](O)[C@@H]1O with E13.
0.606

----------
system: E34; assay: phenotypic distance (Euclidean, principal components) from DMSO controls (arbitrary units); higher = stronger morphological change; conditions: 111.1111111 nM; exposure time: 72 h
Decide by phenotypic distance: equal to or exceeding 0.9 means YES, less means NO.

Given the entry Cc1ccc(NC(=O)c2ccc3c(c2)OCCO3)cc1NC(=O)c1ccc2nc(OCCN3CCCC3)ccc2c1 , answer whether its phenotypic distance meets or surpasses 0.9.
YES

Kindly determine if phenotypic distance recorded for O=[N+]([O-])c1ccc2c(c1)S(=O)(=O)C=C2 [Stattic] is above or exactly 0.9.
YES

Item C/C=C(\C)C(=O)N[C@@H](c1ccccc1)[C@@H](O)C(=O)O[C@H]1C[C@@]2(O)[C@@H](OC(=O)c3ccccc3)[C@@H]3[C@]4(OC(C)=O)CO[C@@H]4C[C@H](O)[C@@]3(C)C(=O)[C@H](OC(C)=O)C(=C1C)C2(C)C [Cephalomannine] with phenotypic distance of 0.9 or above?
YES

Evaluate OCCN1C[C@H](O)[C@@H](O)[C@H](O)[C@H]1CO [Miglitol] : phenotypic distance at minimum 0.9?
NO

# check: phenotypic distance of Cc1cc(C)c(CN2CCc3c(Cl)cc(-c4c(C)noc4C)c(Cl)c3C2=O)c(=O)[nH]1 is greater than or equal to 0.9
NO

Textbook exercise: given the entry O=c1c2ccccc2[se]n1-c1ccccc1 [Ebselen] , state whether its phenotypic distance is greater than or equal to 0.9.
NO

Would you say CC(C)C[C@H](NC(=O)[C@H](Cc1ccccc1)NC(=O)c1cnccn1)B(O)O [Bortezomib] shows phenotypic distance at minimum 0.9?
YES

----------
system: E28 (patient-derived glioblastoma stem cells of classical subtype); experiment: phenotypic distance (Euclidean, principal components) from DMSO controls (arbitrary units); higher = stronger morphological change; settings: 12.3 nM; exposure time: 72 h
Measured parameter: phenotypic distance
API doc: respond with a numeric literal and nothing else, no unit.

Please give the measured phenotypic distance for this compound: O=C1CC[C@@H](C(=O)N2CSC[C@H]2C(=O)O)N1 [Pidotimod]
1.4

Quick one: phenotypic distance of COc1cc2c(cc1O)CC[C@@H]1[C@@H]2CC[C@]2(C)[C@@H](O)CC[C@@H]12 [2-methoxyestradiol] ?
1.15

Quick check: phenotypic distance of CCn1cc(-c2ccnc3[nH]c(-c4cccc(CN(C)C)c4)cc23)c(-c2ccc(NC(=O)N(C)C)cc2)n1 ?
2.81

What measured phenotypic distance goes with S=c1[nH]cnc2nc[nH]c12 [Mercaptopurine] ?
1.01

What value of phenotypic distance has been recorded for this entry: C[C@@H](Oc1cc(-c2cnn(C3CCNCC3)c2)cnc1N)c1c(Cl)ccc(F)c1Cl [Crizotinib]
0.741

State the recorded phenotypic distance for this entry: Cn1ncnc1[C@H]1c2n[nH]c(=O)c3cc(F)cc(c23)N[C@@H]1c1ccc(F)cc1 [Talazoparib]
2.65

Which phenotypic distance value belongs to COc1cc([C@@H]2c3cc4c(cc3[C@H](O)[C@H]3COC(=O)[C@H]23)OCO4)cc(OC)c1OC [Podophyllotoxin] ?
3.22

What does the record list as phenotypic distance for Nc1ncnc2c1c(-c1ccc(Oc3ccccc3)cc1)cn2C1CCCC1 ?
0.603

----------
test system: E57 (patient-derived glioblastoma stem cells of mesenchymal subtype); assay: phenotypic distance (Euclidean, principal components) from DMSO controls (arbitrary units); higher = stronger morphological change; settings: 1000 nM; exposure time: 72 h
Where a name gives a salt, the structure may show the parent alone.
Provide the recorded phenotypic distance for the entries that follow.
Answer with the value's number alone.

For the compound CO[C@H]1C(=O)[C@]2(C)[C@@H](OC)C[C@H]3OC[C@@]3(OC(C)=O)[C@H]2[C@H](OC(=O)c2ccccc2)[C@]2(O)C[C@H](OC(=O)[C@H](O)[C@@H](NC(=O)OC(C)(C)C)c3ccccc3)C(C)=C1C2(C)C , what phenotypic distance is on record?
6.56

Entry under review: COc1ccc2[nH]c([S+]([O-])Cc3ncc(C)c(OC)c3C)nc2c1 (configuration not stated) . Reported phenotypic distance?
0.755

// lookup phenotypic distance for N=C(N)NCc1cccc(I)c1 [Iobenguane sulfate]
0.452

So what's the measured phenotypic distance for this one? NC(=O)c1cccc2cn(-c3ccc([C@@H]4CCCNC4)cc3)nc12
0.667

Entry under review: CN(c1nccc(=O)[nH]1)C1CCN(c2nc3ccccc3n2Cc2ccc(F)cc2)CC1 . Reported phenotypic distance?
0.624

Need phenotypic distance of Clc1ccc(COC(Cn2ccnc2)c2ccc(Cl)cc2Cl)cc1 (configuration not stated) [Econazole nitrate] , thanks.
1.1

Look up phenotypic distance for this compound: OC[C@H]1NC[C@H](O)[C@@H](O)[C@@H]1O
0.442

# query: phenotypic distance of entry Cc1nc2ccccn2c(=O)c1CCN1CCC(C(=O)c2ccc(F)cc2)CC1
0.431

Dear colleague, I am looking for the recorded phenotypic distance of the following compound: C=CC(=O)Nc1cc(Nc2nccc(-c3cn(C)c4ccccc34)n2)c(OC)cc1N(C)CCN(C)C [Osimertinib mesylate]
1.38

If you can, please state the reported phenotypic distance value of CC(C)NCC(O)COc1cccc2ccccc12 (configuration not stated) [Propranolol hydrochloride] .
0.686

Need phenotypic distance of Cc1cc(Nc2cc(CN3CCOCC3)c3nc(C)c(Cc4ccc(Cl)cc4F)n3n2)n[nH]1 , thanks.
2.93

Could you share which phenotypic distance value was measured for COc1cccc2c1C(=O)c1c(O)c3c(c(O)c1C2=O)C[C@@](O)(C(=O)CO)C[C@@H]3O[C@H]1C[C@H](N)[C@H](O[C@@H]2CCCCO2)[C@H](C)O1 ?
5.25

If you can, please state the reported phenotypic distance value of CN1C(=O)OC(C)(C)C1=O .
1.11

Recorded phenotypic distance for CC(C)C[C@H](NC(=O)CNC(=O)c1cc(Cl)ccc1Cl)B(O)O , please?
9.67

Would you kindly share the measured phenotypic distance for CCCSc1ccc2[nH]c(NC(=O)OC)nc2c1 ?
5.59

Report phenotypic distance for C=C[C@H]1CN2CC[C@H]1C[C@@H]2[C@@H](O)c1ccnc2ccc(OC)cc12 [Quinidine hydrochloride monohydrate] please.
0.318

Given the entry CCCCC1C(=O)N(c2ccccc2)N(c2ccc(O)cc2)C1=O (configuration not stated) , report its measured phenotypic distance.
0.546
